# METHOD_NOTES: Inhibition of Helix pomatia beta-mannosidase
pIC50: −log10 of the molar value.
MEASUREMENT_NAME: pIC50

The following molecules have reported results that may help.
- SMILES_STRUCTURE: "COc1ccc([C@@H]2[C@@H](O)[C@H](O)[C@@H](CO)N2C)cc1O"
  pIC50: 3.74
- SMILES_STRUCTURE: "COc1ccc([C@H]2N[C@H](CO)[C@@H](O)[C@@H]2O)c(OC)c1"
  pIC50: 3.76

[a] COc1ccc([C@@H]2[C@@H](O)[C@H](O)[C@@H](CO)N2C)c(OC)c1
[b] COc1ccc([C@H]2N[C@H](CO)[C@@H](O)[C@@H]2O)cc1OC
[c] COc1ccc([C@H]2N[C@H](CO)[C@@H](O)[C@@H]2O)cc1
input: Returns the items ordered by pIC50, from maximum to minimum. Reply with the item labels sorted in the order that was asked for.
output: c, b, a
(c: 4.68, b: 4.28, a: 4.07)

###

# METHOD_NOTES: Inhibition of almond beta-glucosidase
# Set-up: species or system Prunus dulcis
pIC50: −log10 of the molar value.
MEASUREMENT_NAME: pIC50

Here's what some known entries look like.
- MOLECULE: "COc1ccc([C@H]2N[C@H](CO)[C@@H](O)[C@@H]2O)cc1O [RADICAMINE A]"
  pIC50: "< 3.70"
- MOLECULE: "COc1ccc([C@@H]2[C@@H](O)[C@H](O)[C@@H](CO)N2C)c(OC)c1"
  pIC50: "< 3.70"
- MOLECULE: "COc1ccc([C@H]2N[C@H](CO)[C@@H](O)[C@@H]2O)cc1OC"
  pIC50: 4.47
- MOLECULE: "COc1ccc(OC)c([C@@H]2[C@@H](O)[C@H](O)[C@@H](CO)N2C)c1"
  pIC50: "< 3.70"
- MOLECULE: "OC[C@H]1N[C@H](c2ccccc2)[C@@H](O)[C@@H]1O"
  pIC50: 3.71

input: Return reported pIC50; argument: COc1ccc([C@H]2[C@H](O)[C@@H](O)[C@H](CO)N2C)cc1
output: < 3.70

input: Looking for the measured pIC50 of COc1ccc([C@@H]2N[C@@H](CO)[C@H](O)[C@H]2O)cc1 , can you help?
output: < 3.70

input: What measured pIC50 goes with COc1ccc([C@@H]2[C@@H](O)[C@H](O)[C@@H](CO)N2C)cc1O ?
output: < 3.70

###

# METHOD_NOTES: Inhibition of Helix pomatia beta-mannosidase
pIC50: −log10 of the molar value.
MEASUREMENT_NAME: pIC50

- COMPOUND: "COc1ccc([C@H]2[C@H](O)[C@@H](O)[C@H](CO)N2C)cc1"
  pIC50: "< 3.70"
- COMPOUND: "COc1ccc(OC)c([C@@H]2[C@@H](O)[C@H](O)[C@@H](CO)N2C)c1"
  pIC50: "< 3.70"

--- query ---
input: Which value of pIC50 has been reported for OC[C@H]1N[C@H](c2ccc(O)cc2)[C@@H](O)[C@@H]1O [RADICAMINE B] in the records?
output: < 3.70

###

# METHOD_NOTES: Inhibition of Bacillus stearothermophilus alpha-glucosidase
# Design: species or system Geobacillus stearothermophilus
pIC50: −log10 of the molar value.
MEASUREMENT_NAME: pIC50

- SMILES_STRUCTURE: "OC[C@H]1N[C@H](c2ccc(O)cc2)[C@@H](O)[C@@H]1O"
  pIC50: 5.00
- SMILES_STRUCTURE: "COc1ccc([C@H]2N[C@H](CO)[C@@H](O)[C@@H]2O)cc1O"
  pIC50: 4.92

###

# METHOD_NOTES: Inhibition of Helix pomatia beta-mannosidase
pIC50: −log10 of the molar value.
MEASUREMENT_NAME: pIC50

Some compounds with known pIC50 results, for comparison:
- SMILES_STRUCTURE: "COc1ccc([C@@H]2N[C@@H](CO)[C@H](O)[C@H]2O)cc1"
  pIC50: "< 3.70"
- SMILES_STRUCTURE: "COc1ccc([C@@H]2N[C@@H](CO)[C@H](O)[C@H]2O)cc1OC"
  pIC50: "< 3.70"

input: Name the reported pIC50 value associated with the compound COc1ccc([C@@H]2[C@@H](O)[C@H](O)[C@@H](CO)N2C)cc1OC
output: < 3.70

input: // query pIC50 value for entry CCCCN1[C@H](CO)[C@@H](O)[C@H](O)[C@H]1c1ccc(OC)c(O)c1
output: < 3.70

input: Fill blank: measured pIC50 of the compound COc1ccc(OC)c([C@H]2N[C@H](CO)[C@@H](O)[C@@H]2O)c1 is ____.
output: < 3.70
